MEASURED ATTRIBUTE: melting point

# COMPOUND, RESULT
measured = [
    ("CC(C)CC(NC(=O)C(Cc1c[nH]cn1)NC(=O)C(CC(=O)NCCc1ccccc1)Cc1cccc2ccccc12)C(O)C(=O)OCc1ccccc1 (mixture of isomers)", "81 to 86 °C"),
    ("CC1(C(O)(COc2ccc(Cl)cc2)Cn2cncn2)CC1(F)F (centres undefined)", "110 °C"),
    ("NC(=O)NNCc1ccc(OCCc2coc(-c3ccccc3)n2)cc1", "192 to 196 °C"),
    ("O=C(Nc1ccc2cc(CN3CCCC3)cnc2c1)N1CCC(c2ccc(F)cc2)CC1", "239 to 241 °C"),
    ("CCC(=NO)c1ccc(Sc2cc(F)cc([C@@]3(OC)CCO[C@@H]3C)c2)cc1 (racemic)", "113 to 114 °C"),
    ("OCc1cc(CCCCCCCOc2ccc(C3=NCCO3)cc2)on1", "122 to 124 °C"),
    ("O=C(/C=C/c1ccsc1)N1CCOCC1", "141 to 142 °C"),
    ("CCCCCCC(c1nccn1C)n1cnc2cc(-c3ccccc3-c3nn[nH]n3)ccc21 (centres undefined)", "88 to 93 °C"),
    ("O=C1CC2(CCCC2)C1(Cl)CC(Cl)(Cl)Cl (centres undefined)", "70 to 73 °C"),
]

---

Items are presented alongside their recorded melting point.

# MOLECULE, melting point
rows = [
    ("CC(C)=CCCn1c(=O)sc2c(=O)[nH]c(N)nc21", "240 to 242 °C"),
    ("CCCn1nc2c(N)nc3ccccc3c2c1NCCC1CCN(C(=O)NC(C)C)CC1", "168 to 170 °C"),
    ("CC(C(=O)O)c1cccc(NC(=O)NC2N=C(c3ccccc3F)c3ccccc3N(CC(=O)N3CC4CCC(CC4)C3)C2=O)c1 (racemic)", "187 to 204 °C"),
    ("Cc1cc(N)nc(CCc2nc3cc(-c4ccc(C(F)(F)F)cc4)cnc3[nH]2)c1", "170 °C"),
    ("O=S(=O)(c1ccc2ccc(Br)cc2c1)N(Cc1ccccc1)Cc1ccccc1", "127 to 129 °C"),
    ("COc1cccc(C=N[C@H](C)c2ccc([N+](=O)[O-])cc2)c1O", "88 to 90 °C"),
    ("CCN1CCN([C@@H]2c3cc(C#N)ccc3OC(C)(C)[C@H]2O)C1=NC#N (relative stereo)", "231 to 233 °C"),
    ("Cc1cc2c(-c3ccccc3Cl)c(NC(=O)Nc3ccc(F)cc3F)c(=O)n(C)c2cc1C", "242 to 244 °C"),
    ("Cc1ccc(C#N)c2c([N+](=O)[O-])ccc(Cl)c12", "179 to 180 °C"),
    ("CC1CCCC(C)(C)C1CS(=O)(=O)c1ccccc1 (stereo not drawn)", "73 °C"),
    ("O=C(O)c1cn(C2CC2)c2cc(F)c(F)c(NCc3ccccc3)c2c1=O", "214 to 216 °C"),
    ("C#CCN1CCC(OC)(c2cc(F)cc(Sc3ccc(C(C)=NO)cc3)c2)C1 (stereo not drawn)", "97 to 99 °C"),
    ("CNC1Oc2cc(Cl)cc(-c3ccccc3C)c2O1 (stereo not drawn)", "> 250 °C"),
    ("COc1ccc(CCC2COC(Cn3ccnc3)(c3ccc(Cl)cc3Cl)O2)cc1 (stereo not drawn)", "131 °C"),
    ("CCCCOc1ccc2ccccc2c1-c1c(OCCCC)ccc2ccccc12", "85 °C"),
    ("CON=C(C(N)=NO)c1ccccc1COc1ccccc1C", "110 to 112 °C"),
    ("COc1cc(/C=C/c2cc(OC)c(OC)c(OC)c2)cc(OC)c1OC", "220 °C"),
    ("CCCCOC(=O)c1cccc2nc(CCCC)n(Cc3ccc(-c4ccccc4-c4nnn[nH]4)cc3)c12", "192 to 193 °C"),
    ("CNC(=S)NNc1ccnc2c(NC(=O)c3c(Cl)cccc3Cl)cccc12", "> 258 °C"),
    ("COc1cc2c(cc1OC)C(C=Cc1ccc(Cl)c(Cl)c1)=NNC(C)C2 (stereo not drawn)", "132 to 133 °C"),
    ("COc1nc(C)nc(NC(=O)NS(=O)(=O)c2ccccc2C=CC(F)(F)F)n1", "154 to 155 °C"),
    ("Cn1c(=O)cc(CC(=O)O)c2cc(C#N)ccc21", "238 °C"),
    ("CCCCc1nnc(SC)n1Cc1ccc(-c2ccccc2-c2nnn[nH]2)cc1", "100 to 102 °C"),
    ("CCOC(=O)c1c[nH]c2cnc3c(F)c(Cl)c(F)cc3c2c1=O", "328 °C"),
    ("Cc1c(C=CCO)[nH]c(=O)c2c1ccc1nc(Nc3c(Cl)cccc3Cl)n(C)c12", "298 to 300 °C"),
    ("COc1ccccc1NC(=O)Nc1nc(Nc2ccccc2-c2ccccc2)nc(N(CCC(=O)O)Cc2ccc(F)c(F)c2)n1", "115 to 120 °C"),
    ("CN1CCN(c2ccc(Nc3ncc4c(n3)S/C(=C/c3ccc(O)cc3)C(=O)N4)cc2)CC1", "312 to 314 °C"),
    ("CCCC(NC(C)C(=O)N1C(C(=O)O)CC2CCCCC21)C(=O)OCC (stereo not drawn)", "86 to 92 °C"),
    ("Cc1c(C)c2c(c(C)c1O)CCC(C)(C#Cc1cccc(C(F)(F)F)c1)O2 (stereo not drawn)", "81 to 83 °C"),
    ("O=[N+]([O-])c1ccc(C=Cc2ccccc2)cc1", "46 to 50 °C"),
    ("COc1cc(C=O)ccc1OCc1nc(-c2ccccc2)cn1C", "128 to 129 °C"),
    ("CNS(=O)(=O)Cc1ccc2[nH]cc(CCN=CNc3cccnc3)c2c1", "70 to 71 °C"),
    ("Cc1nc2ccccc2nc1OCc1nc(Cl)cc(N2CCCC2)n1", "136 to 140 °C"),
    ("COC(=O)c1cc(CSc2ccccc2)cnc1C1=NC(C)(C(C)C)C(=O)N1 (stereo not drawn)", "135 to 138 °C"),
    ("CCOC(=O)c1c(N2CCN(C)CC2)c2cnc(-c3ccccc3)nc2n(CC)c1=O", "180 to 185 °C"),
    ("O=C1C(=Cc2ccccc2)N2CCC1C2 (stereo not drawn)", "61 to 63 °C"),
    ("COC(=O)C1CCC(C)(C(=O)c2ccc(OC)cc2OC)C1(C)C (stereo not drawn)", "108 °C"),
    ("COc1ccc(-c2nc(-c3cccn3CC(=O)OC(C)C(C)C)sc2-c2ccc(OC)cc2)cc1 (stereo not drawn)", "88.5 to 91.5 °C"),
]
